molecular target: cKIT (Homo sapiens, UniProt P10721); construct: The kinase domain of cKIT was assayed in 50 mM Hepes; purchased Upstate 14-559; assay: Inhibition of cKIT kinase in an in vitro biochemical assay (alphascreen); settings: tested at about 1 μM
Sequence (P10721 589-937 limits assumed): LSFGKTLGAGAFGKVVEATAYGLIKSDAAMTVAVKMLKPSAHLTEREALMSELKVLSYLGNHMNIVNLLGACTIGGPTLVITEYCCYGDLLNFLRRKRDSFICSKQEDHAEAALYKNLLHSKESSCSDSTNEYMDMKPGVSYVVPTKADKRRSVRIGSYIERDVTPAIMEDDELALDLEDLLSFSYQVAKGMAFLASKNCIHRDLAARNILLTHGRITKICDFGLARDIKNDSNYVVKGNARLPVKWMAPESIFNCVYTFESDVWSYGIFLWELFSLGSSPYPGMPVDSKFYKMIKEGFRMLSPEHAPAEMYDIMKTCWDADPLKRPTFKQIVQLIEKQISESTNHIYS
Class fulfilled: inhibition at 1 µM at least 8%. Class not fulfilled: inhibition at 1 µM below 8%.

• CNC(=O)c1cc(Oc2ccc3nc(Nc4cccc5c4OC(F)(F)O5)ncc3c2)ccn1 = fulfilled
• CNC(=O)c1cc(Oc2ccc3nc(NCCN4CCOCC4)ncc3c2)ccn1 = not fulfilled
• CNC(=O)c1cc(Oc2ccc3nc(Nc4ccccc4N4CCN(C)CC4)ncc3c2)ccn1 = fulfilled

In: Dear colleague, could you confirm whether CNC(=O)c1cc(Oc2ccc3nc(N[C@H](C)C4CCCCC4)[nH]c3c2)ccn1 has inhibition at 1 µM at or above 8%?
Out: fulfilled

In: Determine whether this compound has inhibition at 1 µM no lower than 8%: Cn1cc(-c2cc(Oc3ccc4nc(NCC5CCCCC5)ncc4c3)ccn2)cn1
Out: fulfilled
